# studyTarget: Tryptase (Homo sapiens, UniProt Q9BZJ3+Q15661+Q9NRR2)
# procedureSummary: Inhibition of Tryptase in human mast cells
# Assay type: cell-based
readout: Ki (nM)

Solved cases (2 shown):
>  <givenSmiles>
N=C(N)N1CCC(CCNC(=O)CNC(=O)OCc2ccc(COC(=O)NCC(=O)NCCC3CCN(C(=N)N)CC3)cc2)CC1

>  <outputUnit>
nM

>  <Ki>
110

$$$$
>  <givenSmiles>
N=C(N)c1ccc(CNC(=O)N2CCN(C(=O)O[C@H]3CCC[C@@H](OC(=O)N4CCN(C(=O)NCc5ccc(C(=N)N)cc5)CC4)CCC3)CC2)cc1

>  <outputUnit>
nM

>  <Ki>
8.7

$$$$

[A] NCC1CCN(C(=O)NCCCCNC(=O)OCc2ccc(COC(=O)NCCCCNC(=O)N3CCC(CN)CC3)cc2)CC1
[B] N=C(N)c1ccc(NC(=O)CC2CCN(C(=O)O[C@H]3CCC[C@@H](OC(=O)N4CCN(C(=O)NCCC5CCNCC5)CC4)CCC3)CC2)cc1
Ask | Param metric = Ki; output whichever of A , B has the minimum value. Write the label of whichever entry you select.
Reply | B
(B: 8.9 nM, A: 112 nM)

---

# studyTarget: Trypsin (Homo sapiens, UniProt P07477+P07478+P35030)
# procedureSummary: Inhibition of trypsin in human mast cells
# Type: cell-based
readout: Ki (µM)

Solved cases (2 shown):
>  <givenSmiles>
N=C(N)c1ccc(CNC(=O)N2CCN(C(=O)O[C@H]3CCC[C@@H](OC(=O)N4CCN(C(=O)NCCC5CCNCC5)CC4)CCC3)CC2)cc1

>  <studyTarget>
Trypsin (Homo sapiens, UniProt P07477+P07478+P35030)

>  <readout>
Ki

>  <outputUnit>
µM

>  <experimentalResult>
47.2

$$$$
>  <givenSmiles>
COC(=O)NC(=N)c1ccc(CNC(=O)N2CCN(C(=O)O[C@H]3CCC[C@@H](OC(=O)N4CCN(C(=O)NCCC5CCNCC5)CC4)CCC3)CC2)cc1

>  <studyTarget>
Trypsin (Homo sapiens, UniProt P07477+P07478+P35030)

>  <readout>
Ki

>  <outputUnit>
µM

>  <experimentalResult>
554

$$$$

[P] N=C(N)N1CCC(CNC(=O)CNC(=O)OCc2ccc(COC(=O)NCC(=O)NCC3CCN(C(=N)N)CC3)cc2)CC1
[Q] N=C(N)c1ccc(C(=O)NCC2CCN(C(=O)O[C@H]3CCC[C@@H](OC(=O)N4CCN(C(=O)CCCC5CCNCC5)CC4)CCC3)CC2)cc1
Ask | Ki comparison. Which is larger, P or Q ? Write the label of whichever entry you select.
Reply | P

---

# studyTarget: Prothrombin (Homo sapiens, UniProt P00734)
# procedureSummary: Inhibition of thrombin in human mast cells
pKi: −log10 of the molar value.
// reported pKi per item

Solved cases (2 shown):
>  <givenSmiles>
N=C(N)c1ccc(S(=O)(=O)NCC2CCN(C(=O)O[C@H]3CCC[C@@H](OC(=O)N4CCN(C(=O)NCCC5CCNCC5)CC4)CCC3)CC2)cc1

>  <pKi>
< 3.00

$$$$
>  <givenSmiles>
NCC1CCN(C(=O)NCC2CCN(C(=O)OCc3ccc(COC(=O)N4CCC(CNC(=O)N5CCC(CN)CC5)CC4)cc3)CC2)CC1

>  <pKi>
< 3.00

$$$$

Ask | Annotate the compound NCC1CCN(C(=O)NCCCCNC(=O)OCc2ccc(COC(=O)NCCCCNC(=O)N3CCC(CN)CC3)cc2)CC1 with its measured pKi.
Reply | < 3.00

Ask | Annotate the compound N=C(N)c1ccc(CC(=O)N2CCN(C(=O)O[C@H]3CCC[C@@H](OC(=O)N4CCN(C(=O)NCCC5CCNCC5)CC4)CCC3)CC2)cc1 with its measured pKi.
Reply | 4.03

---

# studyTarget: Plasminogen (Homo sapiens)
# Sequence (P00747 97-580 limits assumed): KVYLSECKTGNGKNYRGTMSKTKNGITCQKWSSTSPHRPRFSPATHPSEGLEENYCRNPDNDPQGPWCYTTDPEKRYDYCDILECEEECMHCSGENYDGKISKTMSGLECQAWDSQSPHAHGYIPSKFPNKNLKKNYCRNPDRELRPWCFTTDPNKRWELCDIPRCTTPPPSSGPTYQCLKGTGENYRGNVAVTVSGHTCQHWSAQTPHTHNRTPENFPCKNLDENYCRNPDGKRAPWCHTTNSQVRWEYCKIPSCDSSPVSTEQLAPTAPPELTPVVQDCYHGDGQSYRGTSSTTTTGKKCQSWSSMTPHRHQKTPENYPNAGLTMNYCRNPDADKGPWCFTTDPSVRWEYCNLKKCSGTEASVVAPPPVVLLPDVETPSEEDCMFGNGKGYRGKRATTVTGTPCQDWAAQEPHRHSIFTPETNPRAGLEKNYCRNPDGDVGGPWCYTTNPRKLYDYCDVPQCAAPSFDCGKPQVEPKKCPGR
# Sequence (P00747 581-810 limits assumed): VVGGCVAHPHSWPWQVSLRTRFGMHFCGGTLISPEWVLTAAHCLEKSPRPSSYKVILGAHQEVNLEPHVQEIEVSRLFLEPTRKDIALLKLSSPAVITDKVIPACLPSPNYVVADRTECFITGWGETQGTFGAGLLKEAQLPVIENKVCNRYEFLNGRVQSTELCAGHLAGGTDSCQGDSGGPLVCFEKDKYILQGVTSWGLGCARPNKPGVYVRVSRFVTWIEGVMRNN
# procedureSummary: Inhibition plasmin in human mast cells
# Format: cell-based
pKi: −log10 of the molar value.
readout: pKi

>  <givenSmiles>
N=C(N)c1ccc(CC(=O)N2CCN(C(=O)O[C@H]3CCC[C@@H](OC(=O)N4CCN(C(=O)NCCC5CCNCC5)CC4)CCC3)CC2)cc1

>  <experimentalResult>
< 3.00

$$$$
>  <givenSmiles>
N=C(N)N1CCC(CNC(=O)CNC(=O)OCc2ccc(COC(=O)NCC(=O)NCC3CCN(C(=N)N)CC3)cc2)CC1

>  <experimentalResult>
< 3.00

$$$$

Consider the additional compound presented here.
Ask | Report value only: pKi, Plasminogen (Homo sapiens), COC(=O)NC(=N)c1ccc(CNC(=O)N2CCN(C(=O)O[C@H]3CCC[C@@H](OC(=O)N4CCN(C(=O)NCCC5CCNCC5)CC4)CCC3)CC2)cc1
Reply | < 3.00
